Just for reference, ChEMBL document CHEMBL1134102 is where these values come from.

Target: Serotonin 3 (5-HT3) receptor
Experiment: Binding affinity to 5-HT3 serotonin receptor in NG 108-15 neuroblastoma glioma cells using [3H]GR-65630 radioligand.
pKi: −log10 of the molar value.
Property: pKi

Past entries and their recorded results:
Consider the compound shown here: Clc1cccc(NC2=NCCN2)c1 What is its recorded pKi? < 5.00

Consider the compound shown here: Nc1nc(Nc2cccc(Cl)c2)n[nH]1 What is its recorded pKi? < 5.00

Attention now turns to another entry.
Consider the compound shown here: C/N=C(\NC)Nc1cccc(Cl)c1 What is its recorded pKi? < 5.00
